Can you tell me Ki for the items I'm about to list?
biological target: CB receptors (Rattus norvegicus, UniProt P20272); construct: Crude membrane fractions were prepared from the brain without cerebellum; from tissue; host or cells: Wistar rat brain without cerebellum, crude membrane fraction; test: [3H]WIN55212-2 competition binding in rat brain membrane homogenate
Sequence (P20272 whole entry): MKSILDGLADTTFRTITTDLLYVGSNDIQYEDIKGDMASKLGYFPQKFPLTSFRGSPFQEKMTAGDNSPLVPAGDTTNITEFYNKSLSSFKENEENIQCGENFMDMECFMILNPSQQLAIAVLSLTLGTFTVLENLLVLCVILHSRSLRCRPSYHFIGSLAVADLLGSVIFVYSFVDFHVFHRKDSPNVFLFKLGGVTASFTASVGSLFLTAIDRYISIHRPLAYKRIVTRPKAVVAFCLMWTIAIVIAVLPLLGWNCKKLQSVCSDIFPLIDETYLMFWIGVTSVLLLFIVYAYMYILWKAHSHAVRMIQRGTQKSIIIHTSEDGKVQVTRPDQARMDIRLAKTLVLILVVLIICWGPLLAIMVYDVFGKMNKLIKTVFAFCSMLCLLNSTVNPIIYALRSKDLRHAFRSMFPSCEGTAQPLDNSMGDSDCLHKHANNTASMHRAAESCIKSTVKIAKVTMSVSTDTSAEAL
The response must be a number in nM with no trailing unit.

Quick one: Ki for CC(C)[C@H](NC(=O)c1nn(Cc2ccc(Cl)cc2Cl)c2ccccc12)C(N)=O ?
17

Quick one: Ki for COC(=O)[C@@H](NC(=O)c1nn(Cc2ccc(Cl)cc2Cl)c2ccccc12)C(C)(C)C ?
3.1

Quick one: Ki for COC(=O)[C@@H](NC(=O)c1nn(Cc2ccc(Cl)cc2Cl)c2ccccc12)C(C)C ?
1.8

Quick one: Ki for CC(C)C[C@H](NC(=O)c1nn(Cc2ccc(Cl)cc2Cl)c2ccccc12)C(N)=O ?
88

Quick one: Ki for COC(=O)[C@H](CC(C)C)NC(=O)c1nn(Cc2ccc(Cl)cc2Cl)c2ccccc12 ?
63

Quick one: Ki for CC(C)C[C@H](NC(=O)c1nn(Cc2ccc(Cl)cc2Cl)c2ccccc12)C(=O)O ?
43

Quick one: Ki for CC(C)(C)[C@H](NC(=O)c1nn(Cc2ccc(Cl)cc2Cl)c2ccccc12)C(N)=O ?
17

Quick one: Ki for CC(C)(C)[C@H](NC(=O)c1nn(Cc2ccc(Cl)cc2Cl)c2ccccc12)C(=O)O ?
0.08

Quick one: Ki for CC(C)[C@H](NC(=O)c1nn(Cc2ccc(Cl)cc2Cl)c2ccccc12)C(=O)O ?
2.6
